Assay: Dog pharmacokinetic study
Assay type: in vivo
Details: dog, plasma; male beagle dogs, subcutaneous 67 μg/kg vs intravenous
Where a SMILES comes first, the peptide text is derived from it. [ ]: non-standard residue; d: D form. ξ: configuration not given here. Ala(6-(2-MePh)pyridin-3-yl) = Cc1ccccc1-c1ccc(C[C@H](N)C(=O)O)cn1; Bip(2'-Et-4'-OMe) = CCc1cc(OC)ccc1-c1ccc(C[C@H](N)C(=O)O)cc1; ξαMePhe(2-F) = CC(N)(Cc1ccccc1F)C(=O)O; Thr(3ξ) = CC(O)[C@H](N)C(=O)O; Aib = CC(C)(N)C(=O)O
measuredQuantity: bioavailability (%)
Value expressed in %; do not type the unit.

Notebook: CCc1cc(OC)ccc1-c1ccc(C[C@H](NC(=O)[C@H](CC(=O)O)NC(=O)[C@H](CO)NC(=O)[C@@H](NC(=O)C(C)(Cc2ccccc2F)NC(=O)[C@@H](NC(=O)CNC(=O)[C@H](CCC(=O)O)NC(=O)C(C)(C)NC(=O)[C@@H](N)Cc2c[nH]cn2)C(C)O)C(C)O)C(=O)N[C@@H](Cc2ccc(-c3ccccc3C)nc2)C(N)=O)cc1 (stereo partly shown) [SEQ ID NO: 9] (H-H[Aib]EG[Thr(3ξ)][ξαMePhe(2-F)][Thr(3ξ)]SD[Bip(2'-Et-4'-OMe)][Ala(6-(2-MePh)pyridin-3-yl)]-NH2) , bioavailability read as 93
